Sourced from paper PMC12028158

- System: HCT-116
- protocol_text: NCI60 five-dose screen
- Type: cell-based
- assay_context: Homo sapiens, HCT-116
quantity: GI50 (nM)
Numbers only, in nM.

| compound | system_under_test | GI50 / nM |
| --- | --- | --- |
| CC[C@]12C=CCN3CC[C@@]4(c5ccc(OC)cc5N(C)[C@H]4[C@@](O)(C(=O)OC)[C@@H]1OC(=O)CCCC[P+](c1ccc(OC)cc1)(c1ccc(OC)cc1)c1ccc(OC)cc1)[C@@H]32 [10b] | HCT-116 | 1300 |
| CC[C@]12C=CCN3CC[C@@]4(c5ccc(OC)cc5N(C)[C@H]4[C@@](O)(C(=O)OC)[C@@H]1OC(=O)CCCC[P+](c1ccc(C)cc1)(c1ccc(C)cc1)c1ccc(C)cc1)[C@@H]32 [10a] | HCT-116 | 452 |
| CC[C@]12C=CCN3CC[C@@]4(c5ccc(OC)cc5N(C)[C@H]4[C@@](O)(C(=O)OC)[C@@H]1OC(=O)CCC[P+](c1ccccc1)(c1ccccc1)c1ccccc1OC)[C@@H]32 | HCT-116 | 383 |

Hi there! I need GI50 for each item below, if you can.
1. CCC12C=CCN3CCC4(c5ccc(OC)cc5N(C)C4C(O)(C(=O)OC)C1OC(=O)CCC[P+](c1ccc(C)cc1)(c1ccc(C)cc1)c1ccc(C)cc1)C32 (centres unmarked)
2. CC[C@]12C=CCN3CC[C@@]4(c5ccc(OC)cc5N(C)[C@H]4[C@@](O)(C(=O)OC)[C@@H]1OC(=O)CCC[P+](c1ccc(F)cc1)(c1ccc(F)cc1)c1ccc(F)cc1)[C@@H]32

[307, 14800]

----------
- Tested on: Leukemia panel
- protocol_text: NCI60 five-dose screen, panel mean
- Type: cell-based
- assay_context: Homo sapiens, read-out: Mean GI50
Assign GI50 to each entry below.
One number for each entry, in nM.

Known GI50 results, listed for orientation:
| molecule | GI50 (nM) |
| --- | --- |
| CC[C@]12C=CCN3CC[C@@]4(c5ccc(OC)cc5N(C)[C@H]4[C@@](O)(C(=O)OC)[C@@H]1OC(=O)CCC[P+](c1ccccc1)(c1ccccc1)c1ccccc1OC)[C@@H]32 [9f] | 220 |
| CCC12C=CCN3CCC4(c5ccc(OC)cc5N(C)C4C(O)(C(=O)OC)C1OC(=O)CCC[P+](c1ccc(C)cc1)(c1ccc(C)cc1)c1ccc(C)cc1)C32 (stereo not shown) [9a] | 260 |

Hi there! I need GI50 for each item below, if you can.
1. CC[C@]12C=CCN3CC[C@@]4(c5ccc(OC)cc5N(C)[C@H]4[C@@](O)(C(=O)OC)[C@@H]1OC(=O)CCC[P+](c1ccc(F)cc1)(c1ccc(F)cc1)c1ccc(F)cc1)[C@@H]32 [9c]
2. CC[C@]12C=CCN3CC[C@@]4(c5ccc(OC)cc5N(C)[C@H]4[C@@](O)(C(=O)OC)[C@@H]1OC(=O)CCC[P+](C1CCCCC1)(C1CCCCC1)C1CCCCC1)[C@@H]32 [9d]

[7250, 1200]

----------
- System: HCT-116
- protocol_text: NCI60 five-dose screen
- Format: cell-based
- assay_context: Homo sapiens, HCT-116
quantity: GI50 (nM)
Give bare numbers, in nM.

Known GI50 results, listed for orientation:
| compound | unit_abbrev | GI50 |
| --- | --- | --- |
| CC[C@]12C=CCN3CC[C@@]4(c5ccc(OC)cc5N(C)[C@H]4[C@@](O)(C(=O)OC)[C@@H]1OC(=O)CCCC[P+](C1CCCCC1)(C1CCCCC1)C1CCCCC1)[C@@H]32 [10d] | nM | 2940 |
| CC[C@]12C=CCN3CC[C@@]4(c5ccc(OC)cc5N(C)[C@H]4[C@@](O)(C(=O)OC)[C@@H]1OC(=O)CCCC[P+](c1ccccc1)(c1ccccc1)c1ccccc1)[C@@H]32 [compound 4, reference compound] | nM | 1060 |

Attention now turns to another entry.
Bench note, HCT-116: entry "CC[C@]12C=CCN3CC[C@@]4(c5ccc(OC)cc5N(C)[C@H]4[C@@](O)(C(=O)OC)[C@@H]1OC(=O)CCC[P+](C1CCCCC1)(C1CCCCC1)C1CCCCC1)[C@@H]32" , its GI50 = 2850
